system tested: PKC epsilon (Homo sapiens)
Construct: purchased Invitrogen 6906
Sequence (Q02156 whole entry): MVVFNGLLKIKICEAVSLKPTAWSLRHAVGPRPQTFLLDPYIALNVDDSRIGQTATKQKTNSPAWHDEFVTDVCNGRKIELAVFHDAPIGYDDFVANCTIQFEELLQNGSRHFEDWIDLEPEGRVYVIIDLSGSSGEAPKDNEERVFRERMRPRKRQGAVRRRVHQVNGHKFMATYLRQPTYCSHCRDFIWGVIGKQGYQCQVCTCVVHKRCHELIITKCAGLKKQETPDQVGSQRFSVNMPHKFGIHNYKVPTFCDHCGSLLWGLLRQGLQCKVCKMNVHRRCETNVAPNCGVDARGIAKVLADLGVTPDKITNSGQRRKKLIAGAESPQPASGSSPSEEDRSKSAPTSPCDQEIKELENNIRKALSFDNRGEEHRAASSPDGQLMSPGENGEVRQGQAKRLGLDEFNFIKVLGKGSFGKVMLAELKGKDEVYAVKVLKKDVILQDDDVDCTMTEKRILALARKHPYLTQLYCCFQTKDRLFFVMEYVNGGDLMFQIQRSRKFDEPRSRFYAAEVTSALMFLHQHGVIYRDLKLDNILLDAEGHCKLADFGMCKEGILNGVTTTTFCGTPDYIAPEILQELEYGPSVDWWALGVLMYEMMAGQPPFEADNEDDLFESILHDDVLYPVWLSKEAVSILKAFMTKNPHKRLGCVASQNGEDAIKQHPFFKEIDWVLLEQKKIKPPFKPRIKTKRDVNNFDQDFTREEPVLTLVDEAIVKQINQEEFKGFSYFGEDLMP
protocol text: Fluorescence polarization (FP) PKC inhibition assay, Protein Kinase C Assay Kit, Red (Invitrogen)
Format: biochemical
run parameters: enzyme 10 ng/ml, ATP 2.5 μM, substrate […] 1 μM
Label scheme for IC50: lowest: < 2 µM; middle: ≥ 2 µM and < 10 µM; highest: ≥ 10 µM

[[record]]
molecule = "NC(c1ccc(C(=O)Nc2ccncc2)cc1)C1CCCC1 (stereo not drawn)"
answer_label = "lowest"

[[record]]
molecule = "O=C(Nc1ccncc1)c1ccc(C2=NCCN2)cc1"
answer_label = "highest"

[[record]]
molecule = "NC(c1ccc(C(=O)Nc2ccnc3[nH]ccc23)cc1)C1CCCC1 (stereo not drawn)"
answer_label = "lowest"

[[record]]
molecule = "O=C(Nc1ccncc1)c1ccc2c(c1)CCNC2"
answer_label = "highest"

[[record]]
molecule = "NC(c1ccc(C(=O)Nc2ccncc2)cc1)C1CCCCC1 (stereo not drawn)"
answer_label = "middle"

[[record]]
molecule = "CC(N)c1ccc(C(=O)Nc2ccncc2)c2ccccc12 (stereo not drawn)"
answer_label = "middle"

[[record]]
molecule = "NC[C@H]1CC[C@H](C(=O)NCc2ccncc2)CC1"
answer_label = "highest"

[[record]]
molecule = "CC(N)c1ccc(C(=O)Nc2ccnc3[nH]ccc23)s1 (stereo not drawn)"
answer_label = "middle"

[[record]]
molecule = "NCc1cccc(C(=O)Nc2ccncc2)c1"
answer_label = "highest"

[[record]]
molecule = "NC[C@H]1CC[C@H](C(=O)Nc2cccnc2)CC1"
answer_label = "highest"

[[record]]
molecule = "NC(c1ccccc1)c1ccc(C(=O)Nc2ccncc2)cc1 (stereo not drawn)"
answer_label = "middle"

[[record]]
molecule = "CC(O)c1ccc(C(=O)Nc2ccncc2)cc1 (stereo not drawn)"
answer_label = "highest"

[[record]]
molecule = "O=C(Nc1ccncc1)c1ccc(C2CCCCN2)cc1 (stereo not drawn)"
answer_label = "middle"

[[record]]
molecule = "NCc1ccc(NCc2ccncc2)cc1"
answer_label = "highest"

[[record]]
molecule = "N/C(=N\\O)c1ccc(C(=O)Nc2ccncc2)cc1 [Compound 12, 4-(N-pyridin-4-yl)-benzamide oxime]"
answer_label = "highest"

[[record]]
molecule = "NC[C@H]1CC[C@H](C(=O)Nc2ccccc2)CC1"
answer_label = "highest"

[[record]]
molecule = "NC(c1ccc(F)cc1)c1ccc(C(=O)Nc2ccncc2)cc1 (stereo not drawn)"
answer_label = "middle"

[[record]]
molecule = "NC[C@H]1CC[C@H](C(=O)Nc2ccccn2)CC1"
answer_label = "highest"

[[record]]
molecule = "NCc1ccc(-c2nc3ccncc3[nH]2)cc1"
answer_label = "highest"

[[record]]
molecule = "CC(N)c1ccc(C(=O)Nc2ccnc3[nH]ccc23)cc1 (stereo not drawn)"
answer_label = "lowest"


---

system tested: PKC theta (Homo sapiens, UniProt Q04759)
Construct: purchased Invitrogen 7101
Sequence (Q04759 whole entry): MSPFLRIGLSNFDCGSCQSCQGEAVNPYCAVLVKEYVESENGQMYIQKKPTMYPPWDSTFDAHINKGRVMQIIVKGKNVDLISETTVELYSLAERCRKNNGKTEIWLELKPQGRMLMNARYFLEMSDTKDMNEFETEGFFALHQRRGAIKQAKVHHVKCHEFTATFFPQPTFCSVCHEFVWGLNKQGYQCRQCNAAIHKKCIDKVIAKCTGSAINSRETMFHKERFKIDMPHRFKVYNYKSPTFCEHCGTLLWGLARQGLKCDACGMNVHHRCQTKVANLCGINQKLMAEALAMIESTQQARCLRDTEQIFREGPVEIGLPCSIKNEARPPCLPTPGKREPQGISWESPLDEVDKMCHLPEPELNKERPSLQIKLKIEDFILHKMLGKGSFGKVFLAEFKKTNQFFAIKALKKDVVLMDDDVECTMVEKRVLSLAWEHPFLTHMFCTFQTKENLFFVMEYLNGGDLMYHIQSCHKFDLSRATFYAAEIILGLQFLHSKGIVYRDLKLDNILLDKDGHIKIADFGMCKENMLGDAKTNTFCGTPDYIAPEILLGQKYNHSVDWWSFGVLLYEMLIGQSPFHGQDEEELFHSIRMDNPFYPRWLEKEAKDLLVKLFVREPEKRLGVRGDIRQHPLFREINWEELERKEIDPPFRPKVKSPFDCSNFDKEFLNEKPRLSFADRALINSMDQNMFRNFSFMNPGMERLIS
protocol text: Fluorescence polarization (FP) PKC inhibition assay, Protein Kinase C Assay Kit, Red (Invitrogen)
Type: biochemical
run parameters: enzyme 20 ng/ml, ATP 2.5 μM, substrate […] 1 μM
pIC50: −log10 of the molar value.
Quick reference for pIC50 among some molecules
recorded endpoint: pIC50

[[record]]
molecule = "NC(c1ccc(F)cc1)c1ccc(C(=O)Nc2ccncc2)cc1 (centres unmarked)"
qual = "="
data_value = 4.54

[[record]]
molecule = "NCc1ccc(NCc2ccncc2)cc1"
qual = "<"
data_value = 4.00

[[record]]
molecule = "O=C(Nc1ccncc1)c1ccc2c(c1)CCNC2"
qual = "="
data_value = 4.50

[[record]]
molecule = "O=C(Nc1ccnc2[nH]ccc12)c1ccc2c(c1)CCNC2"
qual = "="
data_value = 5.07

[[record]]
molecule = "NCc1ccc(C(=O)Nc2ccncn2)cc1"
qual = "="
data_value = 4.06

